Tested on: Saccharomyces cerevisiae;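 further: PSI is a weighted mean of sequencing reads over stability bins, variants kept only with over 10 reads, mCherry proximal and sfGFP distal, peptide attached via GGGS linker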
ASSAY METHOD TEXT: protein stability index of tFT-peptide fusion (C-terminal peptide) (PSI (0-1 scale)); higher = more stable (slower turnover)
CONDITION DETAILS: genetic background: cdc34-1; temperature: 37 C
REPORTED PROPERTY: protein stability index
Output: the number by itself.

Please give the measured protein stability index for this sequence: QWRMLTCLMERL
0.446

Entry to check: SCRCIIFVCCFW
0.256

Same thing, different sequence: QGGTWKKLVKMI
0.573

Please give the result for FGVLFFVFVFVC too.
0.149

How about SVFGLLSVCFFY ?
0.488

Same lookup for FIFYYTVLLLCR , please.
0.0366
